# System: MCF7
# Protocol description: Cell cycle arrest in human MCF7 cells assessed as accumulation at G0/G1 phase at 2 times GI50 after 24 hrs by flow cytometry
# Type: functional
Test readout: Activity (%)

1. O=C(NCCCl)Nc1cccc(OC2CCCCCCC2)c1: 61
2. O=C(NCCCl)Nc1ccc2c(c1)CCCCC2: 33
3. CCCCCCc1ccc(NC(=O)NCCCl)cc1: 16
4. O=C(NCCCl)Nc1ccc(OC2CCCCCCC2)cc1: 70
5. O=C(NCCCl)Nc1ccccc1: 59
6. CC1(C)CCC(C)(C)c2cc(NC(=O)NCCCl)ccc21: 6
7. CCNC(=O)Nc1ccc(C2CCCCC2)cc1: 55

Reference source: ChEMBL document CHEMBL1155843
